Molecular target: BRD4 BD1 WT (Homo sapiens)
Experiment: competitive AlphaLISA
Assay type: binding
Settings: AlphaLISA pIC50 Value BRD4 BD1 WT
Assign pIC50 to each entry below.
Give bare numbers, as −log10 of the molar value.

compound="CCC[C@@H](C(=O)OC)[C@@H]1N=C(c2ccc(Cl)cc2)c2cc(OC)ccc2-n2c(C)nnc21 (relative stereo)" test_target="BRD4 BD1 WT (Homo sapiens)" test_value=4.60
compound="C=CC[C@@H](C(=O)OC)[C@@H]1N=C(c2ccc(Cl)cc2)c2ccc(OC)cc2-n2c(C)nnc21 (relative stereo)" test_target="BRD4 BD1 WT (Homo sapiens)" test_value=4.40
compound="COC(=O)CC1N=C(c2ccc(Cl)cc2)c2ccc(OC)cc2-n2c(C)nnc21 (stereo not drawn)" test_target="BRD4 BD1 WT (Homo sapiens)" test_value=6.00
compound="CC[C@@H](C(=O)OC)[C@@H]1N=C(c2ccc(Cl)cc2)c2cc(OC)ccc2-n2c(C)nnc21 (relative stereo)" test_target="BRD4 BD1 WT (Homo sapiens)" test_value=5.10
compound="CC[C@@H](C(=O)OC)[C@@H]1N=C(c2ccc(Cl)cc2)c2ccc(OC)cc2-n2c(C)nnc21 (racemic)" test_target="BRD4 BD1 WT (Homo sapiens)" test_value=5.80

Return reported pIC50 values for all items listed beneath this line.
1. COC(=O)[C@H](C)[C@@H]1N=C(c2ccc(Cl)cc2)c2ccc(OC)cc2-n2c(C)nnc21 (racemic)
2. CC[C@@H](C(=O)OC(C)(C)C)[C@@H]1N=C(c2ccc(Cl)cc2)c2cc(OC)ccc2-n2c(C)nnc21
3. CCNC(=O)[C@H](C)[C@@H]1N=C(c2ccc(Cl)cc2)c2ccc(OC)cc2-n2c(C)nnc21 (relative stereo)
4. CCNC(=O)[C@H](CC)[C@@H]1N=C(c2ccc(Cl)cc2)c2ccc(OC)cc2-n2c(C)nnc21 (relative stereo)

1: 5.50; 2: 5.30; 3: 4.60; 4: 4.20

src = paper PMC5909127
